assay: Dehydrochoric acid level in serum after intravenous administration (loading test); assay type: in vivo, human (liver cirrhosis patient and healthy subject); conditions: human, 1000 mg, healthy subject, 1g intravenously, read-out: area under concentration curve of the compound in blood (AUC) (converted)
parameter_measured: AUC (ng·h/mL)
State just the number; it will be interpreted in ng·h/mL.

// query Look at this compound and give its reported AUC. C[C@H](CCC(=O)O)[C@H]1CC[C@H]2[C@@H]3C(=O)C[C@@H]4CC(=O)CC[C@]4(C)[C@H]3CC(=O)[C@]12C [Dehydrochoric Acid, dehydrochoric acid]
// result 45400

* * *

assay: Dehydrochoric acid level in serum after intravenous administration (loading test); type: in vivo, human (liver cirrhosis patient and healthy subject); details: human, 1000 mg, healthy subject, 1g intravenously, read-out: elimination constant (Kel) (converted)
parameter_measured: k el (s⁻¹)
State just the number; it will be interpreted in s⁻¹.

// query Look at this compound and give its reported k el. C[C@H](CCC(=O)O)[C@H]1CC[C@H]2[C@@H]3C(=O)C[C@@H]4CC(=O)CC[C@]4(C)[C@H]3CC(=O)[C@]12C [Dehydrochoric Acid, dehydrochoric acid]
// result 0.00118
